ASSAY_TARGET: T1, glucose-dependent insulinotropic peptide (gastric inhibitory polypeptide) receptor (GIPR), primary cAMP assay (human, UniProt P48546 22-466)
T1 sequence (looked up): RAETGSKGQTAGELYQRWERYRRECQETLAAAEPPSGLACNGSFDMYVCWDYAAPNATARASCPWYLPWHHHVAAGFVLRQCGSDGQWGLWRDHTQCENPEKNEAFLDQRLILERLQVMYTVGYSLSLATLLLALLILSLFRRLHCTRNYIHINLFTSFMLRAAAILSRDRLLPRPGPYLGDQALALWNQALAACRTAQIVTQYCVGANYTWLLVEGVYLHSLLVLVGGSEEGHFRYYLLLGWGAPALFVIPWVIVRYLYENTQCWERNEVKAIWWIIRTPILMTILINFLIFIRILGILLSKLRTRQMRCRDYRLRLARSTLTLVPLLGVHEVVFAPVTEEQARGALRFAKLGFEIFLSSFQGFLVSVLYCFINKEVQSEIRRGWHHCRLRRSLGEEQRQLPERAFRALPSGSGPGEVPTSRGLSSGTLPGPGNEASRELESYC
PROTOCOL_TEXT: cell-based or functional assay
Starred links: 1 amine or outer side, 2 acyl side, 3 side chain; linkers in the order of their positions; H or OH if unused. Non-standard residues stand in square brackets, D forms with d. Groups on a side chain read outwards from the residue. Primed or numbered codes have the meaning given here. No end group written: not given here. *: point of attachment. γGlu = O=C(O)[C@H](CCC(=O)[*:2])N[*:1]; Palmitoyl = CCCCCCCCCCCCCCCC(=O)*; αMeF = C[C@](N)(Cc1ccccc1)C(=O)O; Myristoyl = CCCCCCCCCCCCCC(=O)*; αMeK = C[C@](N)(CCCCN)C(=O)O; αMeS = C[C@](N)(CO)C(=O)O; PEG2′ = not defined here; Aib = CC(C)(N)C(=O)O
Please go through the items and note down their Primary assay EC50 (cAMP), n2.
Please give the number followed by its unit.

Query block: Given the binder H[Aib]EGS[αMeF]TSDV[αMeS]SK([PEG2′-PEG2′-γGlu-Myristoyl])LEGEAA[αMeK]E[αMeF]IAK([PEG2′-PEG2′-γGlu-Myristoyl])VVEGG-NH2 [SEQ ID NO: 408] , what is its reported Primary assay EC50 (cAMP), n2?
Result block: 21.5 nM

Query block: Given the binder H[Aib]EGTFTSDVSK([PEG2′-PEG2′-γGlu-Palmitoyl])FLEGEAAEEFIK([PEG2′-PEG2′-γGlu-Palmitoyl])WVVEGG-NH2 [SEQ ID NO: 243] , what is its reported Primary assay EC50 (cAMP), n2?
Result block: 21.5 nM

Query block: Given the binder H[Aib]EGS[αMeF]TSDVSK([PEG2′-PEG2′-γGlu-Palmitoyl])FLEGEAAEEFIK([PEG2′-PEG2′-γGlu-Palmitoyl])FVVEGG-NH2 [SEQ ID NO: 247] , what is its reported Primary assay EC50 (cAMP), n2?
Result block: 21.6 nM

Query block: Given the binder H[Aib]EGS[αMeF]TSDV[αMeS]SK([PEG2′-PEG2′-γGlu-Palmitoyl])LEGEAA[αMeK]E[αMeF]IAK([PEG2′-PEG2′-γGlu-Palmitoyl])VVEGG-NH2 [SEQ ID NO: 409] , what is its reported Primary assay EC50 (cAMP), n2?
Result block: 21.5 nM
